Answer each item with its documented IC50.
# SUBJECT OF TEST: USP7 (Homo sapiens, UniProt Q93009)
# Sequence (Q93009 whole entry): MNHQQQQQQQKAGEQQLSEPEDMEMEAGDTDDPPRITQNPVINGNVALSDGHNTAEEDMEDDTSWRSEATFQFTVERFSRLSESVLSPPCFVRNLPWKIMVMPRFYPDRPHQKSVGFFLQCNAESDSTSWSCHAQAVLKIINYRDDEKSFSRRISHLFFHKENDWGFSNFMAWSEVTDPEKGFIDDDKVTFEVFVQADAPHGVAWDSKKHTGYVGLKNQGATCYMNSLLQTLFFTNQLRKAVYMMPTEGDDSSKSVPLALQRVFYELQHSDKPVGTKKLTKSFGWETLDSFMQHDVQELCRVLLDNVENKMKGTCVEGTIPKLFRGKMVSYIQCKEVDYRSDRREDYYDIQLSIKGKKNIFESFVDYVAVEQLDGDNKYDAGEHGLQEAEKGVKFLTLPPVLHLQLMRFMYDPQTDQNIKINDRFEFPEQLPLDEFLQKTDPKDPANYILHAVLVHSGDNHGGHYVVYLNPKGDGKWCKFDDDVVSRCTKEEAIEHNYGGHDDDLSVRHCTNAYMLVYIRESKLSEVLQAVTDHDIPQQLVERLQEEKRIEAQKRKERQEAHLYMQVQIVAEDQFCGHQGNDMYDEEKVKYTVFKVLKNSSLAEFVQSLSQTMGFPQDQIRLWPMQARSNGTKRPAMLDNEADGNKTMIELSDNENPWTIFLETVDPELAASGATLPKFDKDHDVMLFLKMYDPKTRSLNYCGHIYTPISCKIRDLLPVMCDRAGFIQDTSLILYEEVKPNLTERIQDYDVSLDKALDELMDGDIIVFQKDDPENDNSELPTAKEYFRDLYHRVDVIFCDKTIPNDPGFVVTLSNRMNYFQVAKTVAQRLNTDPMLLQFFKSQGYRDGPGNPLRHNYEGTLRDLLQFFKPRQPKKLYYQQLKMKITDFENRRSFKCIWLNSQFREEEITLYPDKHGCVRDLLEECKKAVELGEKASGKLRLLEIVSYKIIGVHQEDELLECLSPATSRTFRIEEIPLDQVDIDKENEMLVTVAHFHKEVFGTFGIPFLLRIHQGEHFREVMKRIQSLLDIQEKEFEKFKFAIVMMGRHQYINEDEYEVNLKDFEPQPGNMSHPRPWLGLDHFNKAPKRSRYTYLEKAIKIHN
# ASSAY: USP7 activity assay (Ub-AMC)
# Type: biochemical
# Set-up: Full-length wild-type human USP7 and its catalytic mutant (cysteine 223 replaced by alanine, C223A) were produced as N-terminally His-tagged fusions; His tag (pFastBac-HT) (N); made in house; host or cells: Spodoptera frugiperda Sf9 (or High Five) insect cells, baculovirus
# MEASUREMENT CONTEXT: 300 nM Ub-AMC, 100 pM enzyme, 30 min pre-incubation; read-out: USP7 (inhibition of deubiquitinating activity)
# Procedure: The cDNA encoding USP7 was obtained by PCR amplification from placenta mRNA. USP7 cDNA was subcloned by PCR into a baculovirus expression vector (pFastBac-HT; Invitrogen). […] Reactions were performed as duplicates in Black 384 well plates (small volumes microplates; Greiner; 10 μl final reaction volume). […] The concentrations were determined in order to perform specificity assays under initial velocities at fixed substrate concentration. […]
Give the quantity in µM, number only.

Q) Which IC50 reading was recorded for the compound "CN1CCN(CCCNC(=O)c2ccc3c(Cl)c4c(nc3c2)CCCC4)CC1" ?
A) 43

Q) Need IC50, item "CCCN(CCC)CCCNC(=O)c1ccc2c(Cl)c3c(nc2c1)CCCC3"
A) 23.8

Q) Any idea what its IC50 is? The compound is "CCCN(CCC)CCNC(=O)c1ccc2c(Cl)c3c(nc2c1)CCCC3"
A) 12.4

Q) Looking for the measured IC50 of "CCN(CC)CCNC(=O)c1ccc2c(Cl)c3c(nc2c1)CCCC3" , can you help?
A) 24.9

Q) Need IC50 of "O=C(c1ccc2c(Cl)c3c(nc2c1)CCCC3)N1CCCCCC1" , thanks.
A) 37.9

Q) Fill blank: measured IC50 of the compound "CN(CCCNC(=O)c1ccc2c(Cl)c3c(nc2c1)CCCC3)Cc1ccccc1" is ____.
A) 28.1

Q) Request the reported IC50 associated with "CCCN1CCN(CCCNC(=O)c2ccc3c(Cl)c4c(nc3c2)CCCC4)CC1"
A) 37.9
